Data provenance is ChEMBL document CHEMBL3400006.

- protocol.description: Solubility of the compound in phosphate buffer at pH 7.4 by chemi-luminescent nitrogen detection method
- Format: physicochemical
Square brackets hold non-standard residues; d marks the D form. Peptide text beside a SMILES is read from it. 2Pal = N[C@@H](Cc1ccccn1)C(=O)O
The entries below come with measured solubility values attached.
The answer is to be given in µM; state only the numeric part.

compound | numeric.readout
CC(C)C[C@@H]1NC(=O)[C@H](Cc2ccc(O)cc2)NC(=O)[C@@H]2CCCN2C(=O)[C@H](CC(C)C)NC(=O)[C@H](CC(C)C)NC(=O)[C@H](Cc2ccccn2)NC1=O (cyclo([2Pal]LLPYL)) | 485
CC(C)C[C@@H]1NC(=O)[C@H](Cc2ccc(O)cc2)NC(=O)[C@@H]2CCCN2C(=O)[C@H](CC(C)C)NC(=O)[C@H](CC(C)C)NC(=O)[C@@H](CC(C)C)NC1=O | 170

Continue with the compound presented below.
Please look at this compound and report its solubility: CC(C)C[C@@H]1NC(=O)[C@@H](CC(C)C)NC(=O)[C@H](Cc2ccc(O)cc2)NC(=O)[C@@H]2CCCN2C(=O)[C@H](CC(C)C)NC(=O)[C@](C)(CC(C)C)NC(=O)[C@@H](CC(C)C)NC1=O 122
